- Test system: RPMI-8226 leukemia
- Assay procedure: NCI tumour cell line growth inhibition, 48 h
Experimental endpoint: TGI

Query TGI on RPMI-8226 leukemia for COc1ccc(F)cc1C(=O)c1cnc(NC2CCN(S(C)(=O)=O)CC2)nc1N
13.1 µM

Query TGI on RPMI-8226 leukemia for C=CC(c1ccccc1)C1(O)c2cccc(O)c2C(=O)c2c(O)cccc21 (stereo not given)
54.8 µM

Query TGI on RPMI-8226 leukemia for COc1ccccc1CNCc1nc2ccccc2[nH]1
> 100 µM

Query TGI on RPMI-8226 leukemia for CCOC(=O)c1cc2ncccc2c2ccccc12
> 100 µM

Query TGI on RPMI-8226 leukemia for COc1cc(/C=N/NC2=NCCCN2)ccc1O
> 100 µM

Query TGI on RPMI-8226 leukemia for O=c1[nH]n(Cc2ccccc2CCl)c2ccc([N+](=O)[O-])cc12
> 100 µM

Query TGI on RPMI-8226 leukemia for CC(C)(CCCCC(C)(C)NCC1COc2ccccc2O1)NCC1COc2ccccc2O1 (stereo not given)
> 10 µM

Query TGI on RPMI-8226 leukemia for CO[C@H](C(=O)N[C@@H](CCCCNC(=O)OCc1ccccc1)C(=O)OC(C)(C)C)[C@@H]1Cc2cc3cc(OC4CC(OC5CC(O)C(O)C(C)O5)C(O)C(C)O4)c(C)c(O)c3c(O)c2C(=O)[C@H]1OC1CC(OC2CC(OC3CC(C)(O)C(O)C(C)O3)C(O)C(C)O2)C(O)C(C)O1 (stereo not given in full)
3.65 µM

Query TGI on RPMI-8226 leukemia for COc1ccc(C(CC(=O)c2ccccc2)C(=O)c2ccc3c(c2)OCO3)cc1 (stereo not given)
> 100 µM

Query TGI on RPMI-8226 leukemia for CC(C)(O)[C@H]1[C@@H]2OC(=O)[C@H]1[C@]1(O)C[C@H]3OC34C(=O)O[C@H]2[C@@]41C (stereo not given in full) (tested in a mixture with another compound)
> 100 µM

Query TGI on RPMI-8226 leukemia for COc1ccccc1N1C(=O)/C(=C\c2cc(OC)c(OC)c(OC)c2)S(=O)(=O)C1c1ccccc1 (stereo not given)
57.1 µM

Query TGI on RPMI-8226 leukemia for COC(=O)C1=CC2OC13CC1CCC3(C2=O)C1(C)C (stereo not given)
38.6 µM

Query TGI on RPMI-8226 leukemia for COC(=O)N/N=C(\C)C(CN1CCOCC1)C(c1ccccc1)c1cc2ccccc2oc1=O (stereo not given)
53.4 µM

Query TGI on RPMI-8226 leukemia for C=CC1(c2ccc(Br)cc2)OCCCO1
> 100 µM

Query TGI on RPMI-8226 leukemia for CCOC(=O)c1c(Cl)c2c(n1Cc1cc(OC)cc(OC)c1)-c1oncc1CCC2
> 100 µM

Query TGI on RPMI-8226 leukemia for CN1CCN(Cc2ccc(NC(=O)c3cncc(C#Cc4c(N)ncc5cc(F)ccc45)c3)cc2C(F)(F)F)CC1
2.83 µM

Query TGI on RPMI-8226 leukemia for COC(=O)c1cc(C#N)[nH]c1-c1cccs1
> 100 µM

Query TGI on RPMI-8226 leukemia for CSc1sc(=S)sc1SC
> 100 µM

Query TGI on RPMI-8226 leukemia for CCOn1cc(C2=C(c3c[nH]c4ccccc34)C(=O)NC2=O)c2ccccc21
5.28 µM

Query TGI on RPMI-8226 leukemia for CN1CCC/C1=C1\C(=O)c2cccn2C1=O
> 100 µM

---

Please go through the items and note down their TGI.
- Test system: SF-268 CNS
- Assay procedure: NCI tumour cell line growth inhibition, 48 h

Query TGI on SF-268 CNS for C/C(=C\COP(=O)(O)OP(=O)(O)O)CC/C=C(\C)CNc1ccc([N+](=O)[O-])cc1
> 100 µM

Query TGI on SF-268 CNS for COC(=O)/C=C(\S/C(=C(/c1ccc(OC)cc1)n1cc(C(=O)OC)c(C(=O)OC)n1)c1ccc(OC)cc1)C(=O)OC
78.8 µM

Query TGI on SF-268 CNS for O=C(Nc1ccc(Br)c(Cl)c1)c1cc(F)ccc1O
> 33.6 µM

Query TGI on SF-268 CNS for CC(C)=CCC[C@@H](C)C1=C(Nc2ccccc2)C(O)=C(C)C(=O)C1=O
25.2 µM

Query TGI on SF-268 CNS for CC1=CCC[C@]2(C)C1=CC(=O)O[C@H]2c1ccoc1
> 100 µM

Query TGI on SF-268 CNS for COc1ccc2c(c1)Cc1c-2c(NN)nc2ccccc12
> 100 µM

---

- Test system: A498 renal
- Assay procedure: NCI tumour cell line growth inhibition, 48 h
Experimental endpoint: TGI

Can you share its TGI? I mean this compound: COc1ccc(-n2cnc3c(NC(C)(C)C(=O)O)ncnc32)cc1
> 100 µM

Can you share its TGI? I mean this compound: Clc1ccc(CO/N=C(\Cn2ccnc2)c2ccc(Cl)cc2Cl)c(Cl)c1
2.65 µM

Can you share its TGI? I mean this compound: COC(=O)C(=O)C(C(=O)C(=O)Nc1cc([N+](=O)[O-])ccc1[N+](=O)[O-])c1nc2ccc(C(=O)c3ccccc3)cc2[nH]c1=O (stereo not drawn)
63.4 µM

Can you share its TGI? I mean this compound: C[C@H](CCC1=NCCN1)[C@H]1CC[C@H]2[C@@H]3CC[C@@H]4C[C@H](O)CC[C@]4(C)[C@H]3CC[C@]12C
34.5 µM

Can you share its TGI? I mean this compound: C=C[C@]1(C)C=C2C(=O)[C@@]3(O)OC(=O)[C@@]4(CCCC(C)(C)[C@H]34)[C@@]2(O)CC1
3.6 µM

Can you share its TGI? I mean this compound: COc1cc(/C=N/NC2=NCCCN2)ccc1O
> 100 µM

Can you share its TGI? I mean this compound: O=C(O)CNCc1c2ccccc2[n+]([O-])c2ccccc12
> 100 µM

Can you share its TGI? I mean this compound: C/C(=C\c1ccn(-c2ccc(N)cc2)n1)[C@@H]1C[C@@H]2O[C@]2(C)CCC[C@H](C)[C@H](O)[C@@H](C)C(=O)C(C)(C)[C@@H](O)CC(=O)O1
3.66 µM

---

Please go through the items and note down their TGI.
- Tested on: NCI-H522 lung
- Assay procedure: NCI tumour cell line growth inhibition, 48 h
Output spec: scalar in µM, unitless text.

Can you share its TGI? I mean this compound: CCCC(=O)NNc1[nH]c(-c2ccc(OC)cc2)cc1C(=O)OCC
50

Can you share its TGI? I mean this compound: COC1/C=C\OC2(C)Oc3c(C)c(O)c4c(O)c(c(CN(C)C)c(O)c4c3C2=O)NC(=O)/C(C)=C\C=C/C(C)C(O)C(C)C(O)C(C)C(OC(C)=O)C1C (configuration not stated)
32.1

Can you share its TGI? I mean this compound: COc1cnc2c(c1)C(=O)c1c-2n(CCCN2CCN(C)CC2)c(=O)c2cc(Cl)ccc12
52.1

Can you share its TGI? I mean this compound: CCCCCCCCCCCCCCCCOCCCOP(=O)(O)C1CCCN(O)C1=O (configuration not stated)
14.8

Can you share its TGI? I mean this compound: Cc1cccc(N=C2c3cc([N+](=O)[O-])ccc3-c3c2cc([N+](=O)[O-])cc3[N+](=O)[O-])c1
41.7

Can you share its TGI? I mean this compound: Cc1ccnc2c1ccc1nc3ccccc3n12
44.5

Can you share its TGI? I mean this compound: Nc1nncs1
4690

Can you share its TGI? I mean this compound: O=c1[nH]n(Cc2ccccc2CCl)c2ccc([N+](=O)[O-])cc12
63.2

Can you share its TGI? I mean this compound: CCCCCCCCCCCCNC1(C)CNCCCNCCNCCCNC1
3.22

---

Please go through the items and note down their TGI.
- System: SF-295 CNS
- Assay procedure: NCI tumour cell line growth inhibition, 48 h

Can you share its TGI? I mean this compound: CC(Oc1ccc(Cl)cc1Cl)C(=O)NN1C(=O)CSC1c1ccc(Cl)cc1 (configuration not stated)
> 100 µM

Can you share its TGI? I mean this compound: Cc1c(Cl)ccc2c1NC(=O)C2(O)C1Cc2ccccc2C1=O (configuration not stated)
> 100 µM

Can you share its TGI? I mean this compound: CC1C(=O)N(C)C2(CO)C(=O)O[C@H](C)C12O (some centres not stated)
> 100 µM

Can you share its TGI? I mean this compound: COc1ccc(C(=O)N2CCN(c3ccc4[nH]c(=O)oc4c3)CC2)cc1
> 100 µM

Can you share its TGI? I mean this compound: Cc1cc(C)n(-c2c(O)ccc(O)c2-n2nc(C)cc2C)n1
> 100 µM

Can you share its TGI? I mean this compound: C/C(=C/CNc1ncnc2c1ncn2CCC#N)CO
> 100 µM

Can you share its TGI? I mean this compound: Nc1ccc(C(=O)NN2C(=O)C(Cl)C2c2ccccc2O)cc1 (configuration not stated)
> 100 µM
